The reported numbers originate from patent US12540137B2.

Molecular target: human TLR7 (Homo sapiens, UniProt Q9NYK1)
Construct: host or cells: HEK293 (HEK-BLUE-hTLR7)
Sequence (Q9NYK1 27-1049): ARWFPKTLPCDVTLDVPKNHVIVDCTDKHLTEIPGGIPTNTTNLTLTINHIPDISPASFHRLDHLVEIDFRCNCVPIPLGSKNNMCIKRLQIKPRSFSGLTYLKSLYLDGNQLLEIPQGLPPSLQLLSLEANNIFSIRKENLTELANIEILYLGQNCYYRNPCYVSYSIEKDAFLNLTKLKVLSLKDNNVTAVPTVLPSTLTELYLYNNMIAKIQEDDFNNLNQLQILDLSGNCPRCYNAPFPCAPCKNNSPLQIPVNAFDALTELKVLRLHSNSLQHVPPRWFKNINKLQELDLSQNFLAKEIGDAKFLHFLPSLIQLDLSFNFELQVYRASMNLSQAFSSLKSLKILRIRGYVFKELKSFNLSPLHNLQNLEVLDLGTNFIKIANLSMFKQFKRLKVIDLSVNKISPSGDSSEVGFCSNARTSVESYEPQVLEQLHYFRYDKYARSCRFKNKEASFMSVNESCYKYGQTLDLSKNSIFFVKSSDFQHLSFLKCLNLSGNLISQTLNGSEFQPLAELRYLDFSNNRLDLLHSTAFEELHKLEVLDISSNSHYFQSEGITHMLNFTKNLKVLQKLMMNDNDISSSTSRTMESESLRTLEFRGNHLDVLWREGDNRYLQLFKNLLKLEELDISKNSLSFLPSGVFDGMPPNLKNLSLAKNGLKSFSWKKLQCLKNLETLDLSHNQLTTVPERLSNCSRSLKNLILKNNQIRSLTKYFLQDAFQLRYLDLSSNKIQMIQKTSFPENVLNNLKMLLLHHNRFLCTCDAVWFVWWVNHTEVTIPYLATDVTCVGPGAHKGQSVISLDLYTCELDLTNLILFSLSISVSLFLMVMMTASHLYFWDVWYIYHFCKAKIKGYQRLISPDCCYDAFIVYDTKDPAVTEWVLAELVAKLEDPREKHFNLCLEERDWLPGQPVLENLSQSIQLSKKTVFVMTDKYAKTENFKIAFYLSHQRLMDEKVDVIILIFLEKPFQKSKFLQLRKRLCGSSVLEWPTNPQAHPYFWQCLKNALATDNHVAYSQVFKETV
Test: TLR activation, HEK-BLUE-hTLR7 SEAP reporter cells
Type: cell-based
Details: 16-20 hours, SEAP response at least 2× vehicle control, tested 0.01-30 micromolar
Measured Metric: MEC to Produce TLR Activation TLR 7 (µM)

> print(dat)
                                   molecule  qual  recorded.number
1  CCOC[C@H](n1cnc2c(N)nc3ccccc3c21)C(C)(C)C [Example 10]     =               30
2  CCOC[C@@H](n1cnc2c(N)nc3ccccc3c21)C(C)(C)O [Example 5]     ≤             0.01
3  CCOC[C@@H](n1cnc2c(N)nc3ccccc3c21)C(C)(C)C [Example 9]     ≤             0.01
4  CCOC[C@@H](n1cnc2c(N)nc3ccccc3c21)C(O)(CC)CC [Example 12]     =             0.04
5  CCO[C@@H](C)[C@@H](n1cnc2c(N)nc3ccccc3c21)C(C)(C)O [Example 13]     =              3.3
6  COC[C@@H](n1cnc2c(N)nc3ccccc3c21)C(C)(C)C [Example 11]     =             0.04
7  CCOC[C@H](n1cnc2c(N)nc3ccccc3c21)C(C)(C)O [Example 6]     >               30
8  CCOC[C@H](C(C)C)n1c(C)nc2c(N)nc3ccccc3c21 [Example 3]     =              1.1
9  CCOC[C@@H](C(C)C)n1cnc2c(N)nc3ccccc3c21 [Example 2]     =              3.3

====

Target: human TLR8 (Homo sapiens)
Construct: host or cells: HEK293 (HEK-BLUE-hTLR8)
Sequence (Q9NR97 27-1041): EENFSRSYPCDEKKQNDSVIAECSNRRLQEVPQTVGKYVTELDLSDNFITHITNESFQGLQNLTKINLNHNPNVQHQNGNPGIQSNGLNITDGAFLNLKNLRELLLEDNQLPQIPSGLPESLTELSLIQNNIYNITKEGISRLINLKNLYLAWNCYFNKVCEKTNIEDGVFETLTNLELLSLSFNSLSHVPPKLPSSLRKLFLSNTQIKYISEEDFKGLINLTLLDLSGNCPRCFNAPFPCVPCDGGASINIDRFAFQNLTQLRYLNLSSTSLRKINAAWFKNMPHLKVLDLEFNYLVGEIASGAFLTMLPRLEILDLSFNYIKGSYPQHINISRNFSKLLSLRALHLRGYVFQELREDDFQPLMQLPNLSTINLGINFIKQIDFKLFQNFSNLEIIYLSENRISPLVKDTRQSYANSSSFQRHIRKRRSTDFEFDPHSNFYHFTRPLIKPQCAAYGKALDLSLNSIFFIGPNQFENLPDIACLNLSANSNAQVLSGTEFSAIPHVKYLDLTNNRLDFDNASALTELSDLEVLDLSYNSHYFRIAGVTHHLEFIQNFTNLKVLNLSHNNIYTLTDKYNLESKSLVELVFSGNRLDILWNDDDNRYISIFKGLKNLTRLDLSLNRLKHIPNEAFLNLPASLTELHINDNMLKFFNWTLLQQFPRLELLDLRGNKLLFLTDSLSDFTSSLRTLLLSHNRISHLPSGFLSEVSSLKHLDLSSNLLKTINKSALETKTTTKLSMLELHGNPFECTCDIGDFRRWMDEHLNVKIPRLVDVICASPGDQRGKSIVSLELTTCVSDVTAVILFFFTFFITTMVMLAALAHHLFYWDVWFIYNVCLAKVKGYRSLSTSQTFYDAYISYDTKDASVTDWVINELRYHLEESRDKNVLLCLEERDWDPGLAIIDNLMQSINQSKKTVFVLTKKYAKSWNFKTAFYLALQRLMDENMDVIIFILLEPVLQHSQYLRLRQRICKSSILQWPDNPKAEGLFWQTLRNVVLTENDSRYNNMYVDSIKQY
Experiment: TLR activation, HEK-BLUE-hTLR8 SEAP reporter cells
Format: cell-based
Details: 16-20 hours, SEAP response at least 2× vehicle control, tested 0.01-30 micromolar
Measured Metric: MEC to Produce TLR Activation TLR 8

> print(dat)
                            compound.smiles  result
1  CCOC[C@@H](n1c(CC)nc2c(N)nc3ccccc3c21)C(C)(C)O   10 µM
2  CCOC[C@@H](n1cnc2c(N)nc3ccccc3c21)C(C)(C)O  3.3 µM
3  CCOC[C@H](n1cnc2c(N)nc3ccccc3c21)C(C)(C)C  >30 µM
4  CCOC[C@@H](C(C)C)n1c(C)nc2c(N)nc3ccccc3c21  >30 µM
5  CCOC[C@@H](n1c(C)nc2c(N)nc3ccccc3c21)C(C)(C)O  1.1 µM
6  COC[C@@H](n1cnc2c(N)nc3ccccc3c21)C(C)(C)C  >30 µM
7  CCOC[C@@H](n1cnc2c(N)nc3ccccc3c21)C(O)(CC)CC   30 µM
8  CCOC[C@@H](n1cnc2c(N)nc3ccccc3c21)C(C)(C)C   30 µM
9   CCOC[C@@H](C(C)C)n1cnc2c(N)nc3ccccc3c21  >30 µM
